Data origin, for the record: ChEMBL document CHEMBL6103637

Tested on: OVCAR-3
Test details: Cytotoxicity against human OVCAR-3 cells assessed as inhibition of cell viability incubated for 72 hrs by CellTiter-blue cell viability assay
Type: functional, cell-based
Settings: OVCAR-3, 72 h
Answer each item with its documented IC50.
Numbers only, in nM.

Worked examples, 6 molecules total:
COC(=O)[C@H]1[C@@H](O)[C@@]2(O)c3c(OC)cc(O[C@@H]4O[C@@H]([C@H](O)CO)CO[C@H]4OC)cc3O[C@@]2(c2ccc(OC)cc2)[C@@H]1c1ccccc1 [SILVESTROL] ... 2
COC(=O)[C@H]1[C@@H](O)[C@@]2(O)c3c(OC)cc(O[C@@H]4O[C@@H]([C@@H](O)CO)CO[C@H]4OC)cc3O[C@@]2(c2ccc(OC)cc2)[C@@H]1c1ccccc1 [2'-EPISILVESTROL] ... 2
COC(=O)[C@H]1[C@@H](O)[C@@]2(O)c3c(OC)cc(O[C@@H]4O[C@@H]([C@@H](O)CO)CO[C@@H]4OC)cc3O[C@@]2(c2ccc(OC)cc2)[C@@H]1c1ccccc1 ... 210
COC(=O)[C@H]1[C@@H](O)[C@@]2(O)c3c(OC)cc(O[C@@H]4O[C@@H]([C@@H]5COC(C)(C)O5)CO[C@H]4OC)cc3O[C@@]2(c2ccc(OC)cc2)[C@@H]1c1ccccc1 ... 38
COC(=O)[C@H]1[C@@H](O)[C@@]2(O)c3c(OC)cc(O[C@@H]4O[C@@H]([C@H]5COC(C)(C)O5)CO[C@H]4OC)cc3O[C@@]2(c2ccc(OC)cc2)[C@@H]1c1ccccc1 ... 37
COC(=O)[C@H]1[C@@H](O)[C@@]2(O)c3c(OC)cc(O[C@@H]4O[C@@H]([C@H](O)CO)CO[C@@H]4OC)cc3O[C@@]2(c2ccc(OC)cc2)[C@@H]1c1ccccc1 ... 210

Kindly consider the entry below.
Q: Provide measured IC50 value, entry: CC(=O)O[C@H]1C(=O)[C@@]2(C)[C@H]([C@H](OC(=O)c3ccccc3)[C@]3(O)C[C@H](OC(=O)[C@H](O)[C@@H](NC(=O)c4ccccc4)c4ccccc4)C(C)=C1C3(C)C)[C@]1(OC(C)=O)CO[C@@H]1C[C@@H]2O [PACLITAXEL]
Result: 12
